Listed next: entries and their corresponding T/C.
Test system: CD2F1 mice, L1210 leukemia ip, survival T/C
Assay: NCI In Vivo Anticancer Drug Screen. Data for tumor model L1210 Leukemia (intraperitoneal) in CD2F1 (CDF1) mice
Settings: endpoint: mean survival time; dose: 200.0 mg/kg/injection; schedule: Q01DX001 (ip); vehicle: saline with Tween-80; higher = longer survival
Inconclusive results and toxic doses are left out.

| Compound | T/C |
| --- | --- |
| N#C/C(=C\C=C\c1cccc([N+](=O)[O-])c1)c1ccccc1 | 105 % of control |
| CC1(C)COC(c2ccc(-c3ccc(C4=NC(C)(C)CO4)cc3)cc2)=N1 | 100 % of control |
| O=C1N(C2CCCCC2)CC2C(c3ccccc3)N(c3ccccc3)NC12O (stereo unspecified) | 91 % of control |
| Nc1nc(N)c(-c2cccc(Cl)c2)c(COc2ccc([N+](=O)[O-])cc2)n1 | 92 % of control |
| COC(=O)C1OC(OC(C)=O)C(OC(C)=O)C(OC(C)=O)C1C(=O)OC (stereo unspecified) | 95 % of control |
| CN1CCCC1CCNc1nc(-c2ccc(C(Cl)(Cl)Cl)cc2)nc(C(Cl)(Cl)Cl)n1 (stereo unspecified) | 95 % of control |
| COc1ccc2ccccc2c1 | 100 % of control |
| CC1=C(c2ccccc2)C(c2ccccc2)c2ccccc21 (stereo unspecified) | 93 % of control |
| O=C1C(=O)c2ccccc2C(O)=C1CNCCO | 94 % of control |
| O=C1c2ccccc2SCCC1C(O)c1ccccc1 (stereo unspecified) | 94 % of control |
| F/C(=C\c1ccccc1)c1ccccc1 | 101 % of control |

The origin of these recorded values is PubChem BioAssay AID256.
